- Target: T1, PROCR (human, UniProt Q9UNN8 18-210)
- T1 construct: Recombinant human protein in ELISA and BLI
- T1 sequence (looked up): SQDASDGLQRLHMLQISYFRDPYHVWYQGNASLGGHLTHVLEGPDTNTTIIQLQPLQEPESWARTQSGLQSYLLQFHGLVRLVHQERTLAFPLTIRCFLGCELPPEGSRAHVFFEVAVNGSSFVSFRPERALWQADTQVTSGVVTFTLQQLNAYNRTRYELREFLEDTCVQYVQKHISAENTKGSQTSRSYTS
- Test Summary: ELISA, plate-coated recombinant human protein, nanobody-Fc
- Method: Recombinant human protein was diluted in PBS to a final concentration of 5 μg/mL and was immobilized on 96-well flat bottom MaxiSorp plates (Thermo Fisher Scientific) and placed at 4° C. overnight. Plates were washed three times with 225 μL ELISA wash buffer (PBS with 0.05% Tween 20) and 200 μL ELISA blocking buffer (PBS with 1% Casein) was added to the well. […] 50 μL 1 M sulfuric acid was added to the wells and absorbance at 450 nm was measured in a Synergy HTX Multi-Mode Microplate Reader (BioTek).
Recorded Endpoint: EC50 (nM)
One number for each entry, in nM.

A selection of reference data follows.
EC50 lookup needed for PROCR_Nb87 (Fc fusion, Nanobody expressed and tested as Fc fusion (human IgG1); not shown: human IgG1 Fc (vector pCER243)) QVQLQESGGGLVQAGGSLRLSCAASGSISSYPYMGWYRQAPGKERELVASIASGTNTYYADSVKGRFTISRDNAKNTVYLQMNSLKPEDTAVYYCAADSTGPWSHVYWGQGTQVTVSS , thanks.
0.0104

If you can, please state the reported EC50 value of PROCR_Nb90 (Fc fusion, Nanobody expressed and tested as Fc fusion (human IgG1); not shown: human IgG1 Fc (vector pCER243)) QVQLQESGGGLVQAGGSLRLSCAASGTISGGYNMGWYRQAPGKEREFVATIGDGSSTYYADSVKGRFTISRDNAKNTVYLQMNSLKPEDTAVYYCAAFNSAQYWYESPFRYWGQGTQVTVSS .
1.74

For the binder PROCR_Nb89 (Fc fusion, Nanobody expressed and tested as Fc fusion (human IgG1); not shown: human IgG1 Fc (vector pCER243)) QVQLQESGGGLVQAGGSLRLSCAASGTIFRDDNMGWYRQAPGKEREFVAAIGYGSTTNYADSVKGRFTISRDNAKNTVYLQMNSLKPEDTAVYYCAVRNTYWNLLQYWGQGTQVTVSS , what EC50 is on record?
0.565

# evaluate next
Form field: reported EC50 of PROCR_Nb83 (Fc fusion, Nanobody expressed and tested as Fc fusion (human IgG1); not shown: human IgG1 Fc (vector pCER243)) QVQLQESGGGLVQAGGSLRLSCAASGNISPTRFMGWYRQAPGKEREFVAAIDLGTTTNYADSVKGRFTISRDNAKNTVYLQMNSLKPEDTAVYYCAADWNGPWSFWYWGQGTQVTVSS
1.27
